System: A549-ACE2 infected with SARS-CoV-2
Assay: cell count relative to DMSO; higher = less toxic
Settings: 3 µM; 24 h
Would you kindly list cell count for each of these compounds?
One number for each entry, in %.

Working through the 6 compounds below one at a time, give cell count for each.
1. FC(F)(F)c1cc(CO[C@H]2CCCN[C@H]2c2ccccc2)cc(C(F)(F)F)c1
2. Clc1ccccc1CNC[C@H]1CC[C@H](CNCc2ccccc2Cl)CC1
3. O=C(OC(C(F)(F)F)C(F)(F)F)N1CCN(Cc2cccc(Oc3ccccc3)c2)CC1
4. COc1cc2c(NC3CCN(C4CCCCC4)CC3)nc(N3CCCN(C(C)C)CC3)nc2cc1OCCCN1CCCCC1
5. CN(C)CCOc1ccc(/C(=C(/CCCl)c2ccccc2)c2ccccc2)cc1
6. NC(=O)c1cnc(N[C@@H]2CCCC[C@@H]2N)nc1Nc1cccc(-n2nccn2)c1

stdout:
113
123
111
110
127
101

###

Would you kindly list cell viability for each of these molecules?
Test system: Caco-2
Assay: cell viability relative to DMSO; higher = less toxic
Conditions: 72 h; 1000 nM
Answers are plain numbers, in %.

Sample answers from the record:
| molecule | targetUnderTest | cell viability / % |
| --- | --- | --- |
| COC(=O)C1=C(C)NC(C)=C(C(=O)OCC(C)C)C1c1ccccc1[N+](=O)[O-] (configuration not stated) | Caco-2 | 93.8 |
| CC(C)(C)NC[C@H](O)c1ccc(O)cc1Cl | Caco-2 | 97.6 |
| COc1cc2c(cc1OCCCN1CCCC1)N=C(N)C21CCC1 | Caco-2 | 104 |
| NC[C@@H]1O[C@H](O[C@@H]2[C@@H](CO)OC(O[C@@H]3[C@@H](O)[C@H](N)C[C@H](N)[C@H]3OC3O[C@H](CN)[C@@H](O)[C@H](O)[C@H]3N)[C@@H]2O)[C@H](N)[C@@H](O)[C@@H]1O (some centres not stated) [NEOMYCIN TRISULFATE] | Caco-2 | 91.7 |
| N=C(NCCCCCCNC(=N)NC(=N)Nc1ccc(Cl)cc1)NC(=N)Nc1ccc(Cl)cc1 | Caco-2 | 100 |
| CN1C(=O)N(C)C2C1N(C)C(=O)N2C (configuration not stated) | Caco-2 | 97.9 |

# input for lookup
stdin: // lookup cell viability for CCN(CC)CCN(Cc1ccc(-c2ccc(C(F)(F)F)cc2)cc1)C(=O)Cn1c(SCc2ccc(F)cc2)nc(=O)c2c1CCC2
stdout: 93.8

###

System: HepG2
Assay: cell viability relative to DMSO; higher = less toxic
Conditions: 72 h; 100 nM
readoutType: cell viability (%)
One number for each entry, in %.

| compoundSmiles | cell viability [%] |
| --- | --- |
| O=c1c(-c2ccc(O)cc2)coc2c([C@@H]3O[C@H](CO)[C@@H](O)[C@H](O)[C@H]3O)c(O)ccc12 | 94.8 |
| CCCc1c(OCCCCc2nnn[nH]2)ccc(C(C)=O)c1O | 94.5 |
| CCCCCCN(CCCCCC)C(=O)Cc1c(-c2ccc(F)cc2)[nH]c2ccccc12 | 94.3 |

stdin: Give recorded cell viability with HepG2 for the following compound: O=C(CCCN1CC=C(n2c(=O)[nH]c3ccccc32)CC1)c1ccc(F)cc1
stdout: 106

###

Would you kindly list cell viability for each of these molecules?
Tested on: HepG2
Test: cell viability relative to DMSO; higher = less toxic
Conditions: 72 h; 10 nM
Answers are plain numbers, in %.

| molecule | targetUnderTest | unitAbbreviation | cell viability |
| --- | --- | --- | --- |
| Cc1cc(/C=C/C#N)cc(C)c1Nc1ccnc(Nc2ccc(C#N)cc2)n1 | HepG2 | % | 99.8 |
| O=c1[nH]c2ccccc2n1C1CCN(CCOc2ccccc2)CC1 [oxiperomide] | HepG2 | % | 112 |
| COc1cccc(-c2cc(NCc3ccc4c(c3)OCO4)nc(N)n2)c1 | HepG2 | % | 97.2 |

Working through the 5 molecules below one at a time, give cell viability for each.
1. O=c1c(-c2ccc(O)cc2)coc2c([C@@H]3O[C@H](CO)[C@@H](O)[C@H](O)[C@H]3O)c(O)ccc12
2. COc1ccc(CCNCc2ccc(OCc3ccc(Cl)nc3)c(OC)c2)cc1OC
3. c1ccc(CCCCN2CCC(c3ccccc3)CC2)cc1
4. N#Cc1ccccc1OCC(O)CNCCNC(=O)Nc1ccccc1 (stereo not drawn)
5. COc1cc(C[C@@H](CO[C@@H]2O[C@H](CO)[C@@H](O)[C@H](O)[C@H]2O)[C@H](CO[C@@H]2O[C@H](CO)[C@@H](O)[C@H](O)[C@H]2O)Cc2ccc(O)c(OC)c2)ccc1O [secoisolariciresinol-diglucoside]

stdout:
97.7
105
103
102
104

###

Test system: A549-ACE2 infected with SARS-CoV-2
Experiment: cell count relative to DMSO; higher = less toxic
Conditions: 0.3 µM; 24 h
readoutType: cell count (%)
Numbers only, in %.

| compound | cell count [%] |
| --- | --- |
| N=C(NCCCCCCNC(=N)NC(=N)Nc1ccc(Cl)cc1)NC(=N)Nc1ccc(Cl)cc1 [chlorhexidine] | 99 |
| O=C(OC(C(F)(F)F)C(F)(F)F)N1CCN(Cc2cccc(Oc3ccccc3)c2)CC1 [JW-642] | 103 |
| FC(F)(F)c1cc(CO[C@H]2CCCN[C@H]2c2ccccc2)cc(C(F)(F)F)c1 | 100 |
| CC(C)COc1ccc(CNC(=O)N(Cc2ccc(F)cc2)C2CCN(C)CC2)cc1 [pimavanserin] | 101 |
| CN(C)CCOc1ccc(/C(=C(/CCCl)c2ccccc2)c2ccccc2)cc1 [toremifene] | 107 |

Working through the 2 compounds below one at a time, give cell count for each.
1. NC(=O)c1cnc(N[C@@H]2CCCC[C@@H]2N)nc1Nc1cccc(-n2nccn2)c1
2. C[S+]([O-])CCCCN=C=S (configuration not stated) [sulforaphane]

stdout:
1: 94; 2: 104

###

Would you kindly list cell viability for each of these compounds?
System: Calu-3
Test: cell viability relative to DMSO; higher = less toxic
Conditions: 72 h; 100 nM
Answers are plain numbers, in %.

Working through the 3 compounds below one at a time, give cell viability for each.
1. c1ccc(-c2nc(CN3CCN(c4ncccn4)CC3)c[nH]2)cc1 [NGD-94-1]
2. C=C[C@H]1CN2CC[C@H]1CC2C(OC(=O)OCC)c1ccnc2ccc(OC)cc12 (stereo in doubt) [quinine-ethyl-carbonate]
3. O=C(O)C(=O)c1cn(Cc2ccccc2)c2ccc(-c3ccc(OC(F)(F)F)cc3)cc12 [tiplaxtinin]

stdout:
[85.5, 102, 96.8]

###

System: A549-ACE2
Assay: drug-induced phospholipidosis relative to tamoxifen; higher = more phospholipidosis
Details: 0.3 µM; 48 h
Would you kindly list drug-induced phospholipidosis for each of these compounds?
Answers are plain numbers, in %.

Working through the 4 compounds below one at a time, give drug-induced phospholipidosis for each.
1. COc1cc2c(NC3CCN(C4CCCCC4)CC3)nc(N3CCCN(C(C)C)CC3)nc2cc1OCCCN1CCCCC1
2. COc1ccc(/C=C/C(=O)/C=C(O)/C=C/c2ccc(OC)c(OC)c2)cc1OC
3. CCOC(=O)c1c(C)[nH]c2ccc3c(c12)CN1CCc2cc(OC)ccc2C1O3 (centres undefined)
4. Clc1ccccc1CNC[C@H]1CC[C@H](CNCc2ccccc2Cl)CC1

stdout:
1: 1.05; 2: 1.84; 3: 1.49; 4: 14.1

###

System: HepG2
Assay: cell viability relative to DMSO; higher = less toxic
Conditions: 72 h; 1000 nM
readoutType: cell viability (%)
Answers are plain numbers, in %.

| molecule | endpointValue |
| --- | --- |
| OB1OCc2cc(Cl)ccc21 | 94 |
| Cc1[nH]c2ccccc2c1CCNC(=O)c1cccs1 | 99.8 |
| C[C@]12CCC(=O)C(O)=C1CC[C@@H]1[C@@H]2CC[C@]2(C)C(=O)CC[C@@H]12 | 112 |

Working through the 2 molecules below one at a time, give cell viability for each.
1. COc1ccc(CCNCc2ccc(OCc3ccc(Cl)nc3)c(OC)c2)cc1OC
2. CC(C)(C)OC(=O)c1ncn2c1[C@@H]1CCCN1C(=O)c1c(Br)cccc1-2

stdout:
1: 96.1; 2: 105

Working through the 4 molecules below one at a time, give cell viability for each.
1. c1ccc2c(CCNc3ccc(Nc4ccncc4)cc3)c[nH]c2c1
2. COc1ccccc1C(=O)Nc1cc2c(cc1N1CCCC1)n(C)c(=O)n2C
3. Cn1cnc2c(NCc3ccccc3)nc(NCCO)nc21
4. CN[C@@H](C)CCC=C(C)C [isometheptene-mucate]

stdout:
[85.7, 96.5, 112, 94.5]

Working through the 8 molecules below one at a time, give cell viability for each.
1. O=[N+]([O-])c1cn2c(n1)OC[C@@H](OCc1ccc(-c3ccc(OC(F)(F)F)cc3)nc1)C2
2. NCC(O)c1ccc(O)cc1 (stereo unspecified)
3. CN(C)CCOc1ccc(/C(=C(/CCCl)c2ccccc2)c2ccccc2)cc1
4. COc1cc(N)c(Cl)cc1C(=O)NC1CN2CCC1CC2 (stereo unspecified) [zacopride]
5. COc1cccc(OCCCN)c1-c1cc(Nc2cnc(C#N)cn2)n[nH]1
6. CC1(C)S[C@@H]2[C@H](NC(=O)C(C(=O)O)c3ccccc3)C(=O)N2[C@H]1C(=O)O (stereo partly specified)
7. C[C@H](CS)C(=O)N1CCC[C@H]1C(=O)O
8. CCN(CC)CCN(Cc1ccc(-c2ccc(C(F)(F)F)cc2)cc1)C(=O)Cn1c(SCc2ccc(F)cc2)nc(=O)c2c1CCC2

stdout:
110
97.5
103
100
38.3
103
95.3
101

Working through the 4 molecules below one at a time, give cell viability for each.
1. Cc1cc(-n2c(=O)[nH]c(=O)n(C)c2=O)ccc1Oc1ccc(SC(F)(F)F)cc1
2. Nc1n[n+]([O-])c2ccccc2[n+]1[O-]
3. COC(=O)C1=C(C)NC(C)=C(C(=O)OCC(C)C)C1c1ccccc1[N+](=O)[O-] (stereo unspecified)
4. COc1ccc2nc(NC(=O)Nc3ccccc3)sc2c1

stdout:
1. 95.9
2. 88.9
3. 92.4
4. 89.7
